Origin of the recorded values: ChEMBL document CHEMBL1201862

Entries annotated with measured GI50
# Tested on: T47D
# MEASUREMENT_DESCRIPTION: NCI tumour cell line growth inhibition, 48 h
Calls of active or inactive are those of the source. Cut-off read from the data, not from the text of the source: active = GI50 up to about 1.1 µM and inactive = higher.

Known results for molecules:
In [3]: df
Out[3]:
                                   molecule      endpoint_value
0  Cc1c(NC(=O)CCCl)c(=O)oc2c(C)c3occc(=O)c3cc12  77.4 µM (inactive)
1  C=CCC1C(O[Si](C)(C)C(C)(C)C)C(CO[Si](C)(C)C(C)(C)C)OC1n1ccc(=O)[nH]c1=O (stereo not given)   1.3 µM (inactive)

Return the recorded GI50 value; entry: Oc1ccccc1C(c1cc2c(cc1O)OCO2)N1CCOCC1 (stereo not given)
16.7 µM (inactive)

Determine from records and report GI50 for Cc1cccc2c1C(=O)[C@@](C)([C@]1(C)Nc3cccc(C)c3C1=O)N2
> 100 µM (inactive)

Respond only with GI50 recorded for CNC(=O)c1nc[nH]c1/N=N/N(C)N
> 100 µM (inactive)
